B1: SNAP91 (parent)
chain: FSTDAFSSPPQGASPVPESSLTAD

Variants of: B1
assay: protein stability index of a GFP-peptide fusion (GPS, HEK-293T) (PSI 1-6); higher = more stable;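 note: lentivirally expressed fusions sorted by FACS into six bins by GFP to DsRed ratio, PSI derived from sequencing read proportions per bin multiplied by bin number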
experimental_setup: c terminus: a fixed tail appended
Label met when protein stability index is at or above 3; otherwise label not met.

{"columns": ["mutation_list", "group_label"],
 "data": [
  ["P10S", "not met"],
  ["A13I", "not met"],
  ["F6N", "met"],
  ["P15T", "met"],
  ["A13C", "not met"],
  ["Q11M", "not met"]
]}

Please tell me: is the variant G12C at or over 3 in terms of protein stability index?
not met

For this variant, is measured protein stability index 3 or higher? S19H
met

Is the recorded value of protein stability index equal to or greater than 3 for this variant? P9L
not met

Threshold query (protein stability index >= 3) on P9C
not met

All figures here come from the supplement of paper PMC10567573.
